# maps each entry to its pIC50
- study_target: human LTA4 hydrolase (Homo sapiens)
- Sequence (P09960 1-611): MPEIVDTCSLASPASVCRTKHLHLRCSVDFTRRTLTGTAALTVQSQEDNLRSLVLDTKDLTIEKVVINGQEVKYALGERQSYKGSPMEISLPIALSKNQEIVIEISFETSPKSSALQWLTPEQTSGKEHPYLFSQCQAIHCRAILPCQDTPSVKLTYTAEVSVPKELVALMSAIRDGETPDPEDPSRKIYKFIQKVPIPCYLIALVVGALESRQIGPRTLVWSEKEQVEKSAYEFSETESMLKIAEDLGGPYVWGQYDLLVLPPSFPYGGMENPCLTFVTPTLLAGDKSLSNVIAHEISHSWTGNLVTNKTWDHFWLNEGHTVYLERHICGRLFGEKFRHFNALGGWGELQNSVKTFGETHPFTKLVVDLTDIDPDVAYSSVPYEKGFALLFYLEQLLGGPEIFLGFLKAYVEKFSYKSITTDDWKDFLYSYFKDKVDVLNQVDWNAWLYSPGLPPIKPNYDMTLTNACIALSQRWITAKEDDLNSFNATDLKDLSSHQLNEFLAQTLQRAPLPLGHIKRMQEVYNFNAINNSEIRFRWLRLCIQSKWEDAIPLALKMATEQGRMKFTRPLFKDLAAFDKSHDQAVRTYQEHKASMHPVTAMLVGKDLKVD
Worth noting: pIC50 values are minus log10 of concentrations stated in mol/L.

# molecule_smiles, pIC50
measured = [
    ("c1cc(-c2ccc(Oc3ccc(OCc4cnc5[nH]ccc5c4)cc3)cc2)[nH]n1", 8.12),
    ("c1cc(-c2ccc(Oc3ccc(OCc4cn5ccsc5n4)cc3)cc2)[nH]n1", 8.22),
]

Quote pIC50 with test system human LTA4 hydrolase (Homo sapiens) for O=C1CC[C@@H](Oc2ccc(Oc3ccc(-c4ccn[nH]4)cn3)cc2)CN1
8.82

###

- Tested on: LTB4 production in human whole blood
- method: LTB4 production inhibition assay in human whole blood (calcimycin-stimulated)
- Type: cell-based
- measurement_setup: heparinized human whole blood, 15 min 37° C., calcimycin 20 μM 30 min, plasma LTB4 by HTRF
Field 'label' (enum: fulfilled / not fulfilled). Set to fulfilled when IC50 is strictly under 300 nM; else not fulfilled.

Examples from the recorded data:
# compound, label_class
measured = [
    ("c1cc(-c2ccc(Oc3ccc(OCCN4CCOCC4)cc3)cc2)[nH]n1 [Example 22]", "fulfilled"),
    ("O=C1CC[C@@H](COc2ccc(Oc3ccc(-c4ccn[nH]4)cn3)cc2)N1 [Example 3]", "fulfilled"),
]

Confirm or reject: IC50 of O=C1N[C@H](COc2ccc(Oc3ccc(-c4ccn[nH]4)cc3)cc2)CO1 [Example 12] lies strictly below 300 nM
fulfilled

Confirm or reject: IC50 of c1ccc2[nH]c(NCCOc3ccc(Oc4ccc(-c5ccn[nH]5)cc4)cc3)nc2c1 [Example 41] lies strictly below 300 nM
not fulfilled

Confirm or reject: IC50 of c1cc(-c2ccc(Oc3ccc(OCc4cocn4)cc3)cc2)[nH]n1 [Example 54] lies strictly below 300 nM
not fulfilled

Confirm or reject: IC50 of c1cc(-c2ccc(Oc3ccc(OCc4cncs4)cc3)cc2)[nH]n1 [Example 70] lies strictly below 300 nM
not fulfilled

Confirm or reject: IC50 of O=C1N[C@@H](COc2ccc(Oc3ccc(-c4ccn[nH]4)cc3)cc2)CO1 [Example 15] lies strictly below 300 nM
fulfilled

Confirm or reject: IC50 of c1ccc2c(c1)ncn2CCOc1ccc(Oc2ccc(-c3ccn[nH]3)cc2)cc1 [Example 43] lies strictly below 300 nM
not fulfilled

Confirm or reject: IC50 of O=C1NCC(COc2ccc(Oc3ccc(-c4ccn[nH]4)cc3)cc2)O1 (stereo not drawn) [Example 11] lies strictly below 300 nM
not fulfilled

Confirm or reject: IC50 of O=C1CC[C@@H](Oc2ccc(Oc3ccc(-c4ccn[nH]4)nc3)cc2)CN1 [Example 95] lies strictly below 300 nM
not fulfilled

Confirm or reject: IC50 of O=C1CC[C@H](Oc2ccc(Oc3ccc(-c4ccn[nH]4)cc3)cn2)CN1 [Example 6] lies strictly below 300 nM
not fulfilled

###

# maps each entry to its pIC50
- Test system: LTB4 production in human whole blood
- method: LTB4 production inhibition assay in human whole blood (calcimycin-stimulated)
- Format: cell-based
- measurement_setup: heparinized human whole blood, 15 min 37° C., calcimycin 20 μM 30 min, plasma LTB4 by HTRF
- Protocol: Compounds of the invention are additionally tested in a human whole blood assay to determine their ability to inhibit the synthesis of LTB4 in a cellular system. Compounds are combined with heparinized human whole blood and incubated for 15 minutes at 37° C. […] Plasma LTB4 concentrations are then measured using an antibody-based homogenous time-resolved fluorescence method (CisBio, Bedford, Mass.).
Worth noting: pIC50 values are minus log10 of concentrations stated in mol/L.

These solved cases illustrate the format of a correct answer.
# compound, reported_value
rows = [
    ("O=C1N[C@@H](COc2ccc(Cc3ccc(-c4ccn[nH]4)cc3)cc2)CO1", 6.64),
    ("O=C1CC[C@@H](Oc2ccc(Cc3ccc(-c4ccn[nH]4)cc3)cc2)CN1", 6.24),
    ("c1cc(COc2ccc(Oc3ccc(-c4ccn[nH]4)cc3)cc2)ccn1", 5.75),
    ("c1cc(-c2ccc(Oc3ccc(OCC4CCOC4)cc3)cc2)[nH]n1 (stereo not drawn)", 5.92),
    ("CC(Oc1ccc(Oc2ccc(-c3ccn[nH]3)cc2)cc1)c1ccncc1 (stereo not drawn)", 5.41),
    ("c1cnn(-c2ccc(COc3ccc(Oc4ccc(-c5ccn[nH]5)cc4)cc3)cn2)c1", 5.78),
    ("c1cc(-c2ccc(Oc3ccc(OCc4cnc5cc[nH]c5c4)cc3)cc2)[nH]n1", 5.50),
    ("O=C1CC[C@@H](Oc2ccc(Oc3ccc(-c4ccn[nH]4)cn3)cc2)CN1", 6.37),
    ("c1cc(-c2ccc(Oc3ccc(OCC4COCCN4)cc3)nc2)[nH]n1 (racemic)", 7.28),
    ("CS(=O)(=O)c1ccc(COc2ccc(Oc3ccc(-c4ccn[nH]4)cc3)cc2)cc1", 5.68),
]

Hello, please tell me recorded pIC50 for this one: c1cc(-c2ccc(Oc3ccc(OCc4cnc[nH]4)cc3)cc2)[nH]n1
5.74

Hello, please tell me recorded pIC50 for this one: c1cc(-c2ccc(Oc3ccc(OCCc4cnoc4)cc3)cc2)[nH]n1
5.59

###

- System: LTB4 production in human whole blood
- method: LTB4 production inhibition assay in human whole blood (calcimycin-stimulated)
- Type: cell-based
- measurement_setup: heparinized human whole blood, 15 min 37° C., calcimycin 20 μM 30 min, plasma LTB4 by HTRF
endpoint_name: pIC50
Worth noting: pIC50 values are minus log10 of concentrations stated in mol/L.

# compound, endpoint_name, reported_value
records = [
    ("c1cc(-c2ccc(Oc3ccc(OC4CCOCC4)cc3)cc2)[nH]n1 [Example 89]", "pIC50", 5.75),
    ("c1cc(-c2ccc(Oc3ccc(O[C@H]4CCOC4)cc3)cc2)[nH]n1 [Example 90]", "pIC50", 6.11),
    ("O=C1NC(COc2ccc(Oc3ccc(-c4ccn[nH]4)cc3)cc2)CO1 (stereo not drawn) [Example 10]", "pIC50", 6.90),
    ("O=C1CC[C@@H](COc2ccc(Oc3ccc(-c4ccn[nH]4)cc3)cc2)N1 [Example 2]", "pIC50", 6.79),
]

Hello, please tell me recorded pIC50 for this one: Cn1nccc1COc1ccc(Oc2ccc(-c3ccn[nH]3)cc2)cc1 [Example 61]
5.95

Hello, please tell me recorded pIC50 for this one: c1ccc(CCOc2ccc(Oc3ccc(-c4ccn[nH]4)cc3)cc2)nc1 [Example 33]
5.47

Hello, please tell me recorded pIC50 for this one: O=C1CC[C@H](Oc2ccc(Oc3ccc(-c4cc[nH]n4)cc3)cc2)CN1 [Example 13]
6.67

###

- Test system: LTB4 production in human whole blood
- method: LTB4 production inhibition assay in human whole blood (calcimycin-stimulated)
- Format: cell-based
- measurement_setup: heparinized human whole blood, 15 min 37° C., calcimycin 20 μM 30 min, plasma LTB4 by HTRF
Field 'label' (enum: true (1) / false (0)). Set to true (1) when IC50 is strictly under 2 µM; else false (0).

# compound, study_target, label_class
rows = [
    ("c1cc(-c2ccc(Oc3ccc(O[C@@H]4CCOC4)cc3)cc2)[nH]n1 [Example 4]", "LTB4 production in human whole blood", "true (1)"),
    ("c1cc(-c2ccc(Oc3ccc(OCc4cc[nH]n4)cc3)cc2)[nH]n1 [Example 46]", "LTB4 production in human whole blood", "false (0)"),
    ("c1cnn(CCCOc2ccc(Oc3ccc(-c4ccn[nH]4)cc3)cc2)c1 [Example 50]", "LTB4 production in human whole blood", "false (0)"),
]

Confirm or reject: IC50 of c1cc(-c2ccc(Oc3ccc(OCc4ccc5ncsc5c4)cc3)cc2)[nH]n1 [Example 71] lies strictly below 2 µM
false (0)
